Measured On: Human GO (Homo sapiens, UniProt Q9UJM8)
Construct: purchased Novus Biologicals NBP1-72412
Sequence (Q9UJM8 whole entry): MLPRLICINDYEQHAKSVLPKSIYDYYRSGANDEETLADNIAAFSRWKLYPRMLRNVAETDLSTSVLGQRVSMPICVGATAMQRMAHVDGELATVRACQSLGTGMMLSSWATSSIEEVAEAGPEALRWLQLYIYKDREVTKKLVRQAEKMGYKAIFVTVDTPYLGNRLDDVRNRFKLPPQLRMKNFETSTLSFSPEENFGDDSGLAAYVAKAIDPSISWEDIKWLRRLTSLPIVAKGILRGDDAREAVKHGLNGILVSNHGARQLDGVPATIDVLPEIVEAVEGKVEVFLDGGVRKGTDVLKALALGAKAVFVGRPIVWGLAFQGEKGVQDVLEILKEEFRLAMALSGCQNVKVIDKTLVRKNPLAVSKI
Experiment Summary: GO enzymatic assay (coupled fluorescence/HRP assay, glycolate substrate)
Type: biochemical
Applied Conditions: Table 1; read-out: Range (range of IC50 values calculated from the enzymatic assays)
Method: Assay 1: GO Enzymatic Assay GO was incubated with its substrate, glycolate, in 50 mM potassium phosphate buffer, pH 7. […] The enzyme was optimized and the kinetics was determined. Compound inhibition was determined by adding various concentrations of inhibitors in the GO enzyme assay. […]
Recorded Metric: IC50

Asked: Output IC50 of `O=C(O)c1[nH]nnc1Oc1ccc(-c2ccc3ncccc3c2)cc1`
Given back: < 100 nM

Asked: Identify the reported IC50 for the following entry. `O=C(O)c1[nH]nnc1Nc1cc(Cl)cc(Cl)c1`
Given back: 100 to 1000 nM

Asked: Please give the documented IC50 of `CC(C)(C)C(=O)OCOC(=O)c1[nH]nnc1Nc1ccc(-c2ccc(Cl)cc2)cc1`
Given back: 1000 to 10000 nM

Asked: Output IC50 of O=C(O)c1[nH]nnc1OC1CCc2ccccc2C1 (stereo not drawn) [Compound 117, 2,2,2-trifluoroacetate]
Given back: < 100 nM

Asked: Please report IC50 for the following compound: `O=C(O)c1[nH]nnc1Nc1nc(-c2ccc(Cl)c(Cl)c2)cs1`
Given back: < 100 nM

Asked: Consider the compound `O=C(O)c1[nH]nnc1Sc1csc(-c2ccc(Cl)c(Cl)c2)n1` and give its recorded IC50.
Given back: < 100 nM

Asked: Read off the recorded IC50 for `O=C(O)c1[nH]nnc1Nc1ccc(Cl)c(Cl)c1`
Given back: < 100 nM

Asked: Indicate its recorded IC50; the compound in question is `O=C(O)c1[nH]nnc1C(F)(F)c1ccc(Cl)c(Cl)c1`
Given back: < 100 nM

Asked: Read the entry Cn1c(Sc2nn[nH]c2C(=O)O)nnc1-c1ccc(Cl)c(Cl)c1 [Compound 28, 2,2,2-trifluoroacetate] and write its reported IC50.
Given back: 1000 to 10000 nM

---

Measured On: Human GO (Homo sapiens)
Construct: purchased Novus Biologicals NBP1-72412
Experiment Summary: GO enzymatic assay (coupled fluorescence/HRP assay, glycolate substrate)
Format: biochemical
Applied Conditions: Table 1; read-out: Range (range of IC50 values calculated from the enzymatic assays)
Recorded Metric: IC50

Asked: Give IC50 for O=C(O)c1[nH]nnc1Sc1ccc(-c2ccc(OC(F)(F)F)cc2)cc1 [Compound 16]
Given back: < 0.1 µM

Asked: State its IC50: O=C(O)c1[nH]nnc1NC1CCN(c2ccc(OC(F)(F)F)cc2)CC1 [Compound 74]
Given back: 0.1 to 1 µM

Asked: Please report the measured IC50 for CC(C)(C)C(=O)OCOC(=O)c1[nH]nnc1Sc1ccc(-c2ccc(OC(F)(F)F)cc2)cc1 [Compound 54]
Given back: 1 to 10 µM

Asked: Dear colleague, please send me the reported IC50 for O=C(O)c1[nH]nnc1-c1ccc(OCC2CCCC2)cc1 [Compound 137] when you can.
Given back: 0.1 to 1 µM

Asked: // Input: O=C(O)c1[nH]nnc1Sc1csc(-c2ccc(OC(F)(F)F)c(Cl)c2)n1 [Compound 39] . Output its IC50 only.
Given back: < 0.1 µM

Asked: Output IC50 of O=C(O)c1[nH]nnc1Oc1ccc(-c2ccc(OC(F)(F)F)c(Cl)c2)cc1 [Compound 156]
Given back: < 0.1 µM

Asked: Look up and report measured IC50 for this entry: O=C(O)c1[nH]nnc1Nc1ccc2c(c1)CCCC2 [Compound 77]
Given back: 1 to 10 µM

---

Measured On: Human GO (Homo sapiens, UniProt Q9UJM8)
Construct: purchased Novus Biologicals NBP1-72412
Experiment Summary: GO enzymatic assay (coupled fluorescence/HRP assay, glycolate substrate)
Type: biochemical
Applied Conditions: Table 1; read-out: Range (range of IC50 values calculated from the enzymatic assays)
pIC50: −log10 of the molar value.
Give pIC50 for every item shown.

Asked: Name the value of pIC50 reported for `O=C(O)c1[nH]nnc1Sc1nc(-c2ccc(Cl)c(Cl)c2)cs1` when tested on Human GO (Homo sapiens, UniProt Q9UJM8).
Given back: > 7.00

Asked: Recall the reported pIC50 of `O=C(O)c1[nH]nnc1Sc1ccc(-c2ccc(Cl)cc2)cc1` on Human GO (Homo sapiens, UniProt Q9UJM8) and write it down.
Given back: > 7.00

Asked: Please tell me the measured pIC50 for `O=C(O)c1[nH]nnc1Sc1ccc(F)c(F)c1` ; system: Human GO (Homo sapiens, UniProt Q9UJM8).
Given back: > 7.00

Asked: // fetch pIC50; item: O=C(O)c1[nH]nnc1OC1CCc2cc(Cl)c(Cl)cc2C1 (stereo not drawn) [Compound 111, 2,2,2-trifluoroacetate] ; system: Human GO (Homo sapiens, UniProt Q9UJM8)
Given back: > 7.00

Asked: Provide pIC50, recorded with Human GO (Homo sapiens, UniProt Q9UJM8), of `CCOC(=O)c1[nH]nnc1Nc1ccc(-c2ccc(Cl)cc2)cc1`
Given back: < 5.00

Asked: Fill: pIC50 (Human GO (Homo sapiens, UniProt Q9UJM8)) for this molecule O=C(O)c1[nH]nnc1COc1ccc2cc(Cl)ccc2c1 [Compound 158, 2,2,2-trifluoroacetate]
Given back: > 7.00

Asked: Would you please give the reported pIC50 of `CC(C)C(=O)OCn1nnc(Sc2ccc(-c3ccc(OC(F)(F)F)cc3)cc2)c1C(=O)O` with Human GO (Homo sapiens, UniProt Q9UJM8)?
Given back: 6.00 to 7.00

Asked: Look up Human GO (Homo sapiens, UniProt Q9UJM8) data: pIC50 of `O=C(O)c1[nH]nnc1Sc1nc(-c2ccc(OC3CC3)c(Cl)c2)cs1` , then report it.
Given back: > 7.00

Asked: GET pIC50 where system = Human GO (Homo sapiens, UniProt Q9UJM8) and item = `COC(=O)c1[nH]nnc1Sc1nc(-c2ccc(OC(F)(F)F)c(Cl)c2)cs1`
Given back: < 5.00

Asked: Provide the reported pIC50 (system: Human GO (Homo sapiens, UniProt Q9UJM8)) for `O=C(O)c1[nH]nnc1NCc1cccc(-c2ccc(Cl)c(Cl)c2)c1`
Given back: 6.00 to 7.00

Asked: Please tell me the measured pIC50 for O=C(O)c1[nH]nnc1Sc1ccc2ncsc2c1 [Compound 53, 2,2,2-trifluoroacetate] ; system: Human GO (Homo sapiens, UniProt Q9UJM8).
Given back: > 7.00

Asked: Using Human GO (Homo sapiens, UniProt Q9UJM8) as the test system, report measured pIC50 of `O=C(O)c1[nH]nnc1Nc1ccc(OC(F)(F)F)cc1` .
Given back: 6.00 to 7.00

Asked: Report value: pIC50, system: Human GO (Homo sapiens, UniProt Q9UJM8), molecule: `O=C(O)c1[nH]nnc1Sc1csc(-c2ccc(Cl)c(Cl)c2)c1`
Given back: > 7.00

Asked: Write pIC50 of `O=C(O)c1[nH]nnc1-c1cccc(-c2ccc(Cl)c(Cl)c2)c1` ; system used: Human GO (Homo sapiens, UniProt Q9UJM8)
Given back: > 7.00

Asked: Print Human GO (Homo sapiens, UniProt Q9UJM8) pIC50 for `CCCCOc1ccc2sc(Sc3nn[nH]c3C(=O)O)nc2c1` .
Given back: 6.00 to 7.00

Asked: Report the value of pIC50 obtained on Human GO (Homo sapiens, UniProt Q9UJM8) for CC(C)N1CCc2cc(-c3nn[nH]c3C(=O)O)ccc2C1 [Compound 143, 2,2,2-trifluoroacetate] .
Given back: < 5.00

Asked: Consider the molecule O=C(O)c1[nH]nnc1-c1ccc2cc(Cl)ccc2n1 [Compound 132, 2,2,2-trifluoroacetate] tested on Human GO (Homo sapiens, UniProt Q9UJM8); state its pIC50.
Given back: > 7.00

Asked: Write pIC50 of O=C(O)c1[nH]nnc1NC1CCN(c2ccc(OC(F)(F)F)cc2)C1 (stereo not drawn) ; system used: Human GO (Homo sapiens, UniProt Q9UJM8)
Given back: 6.00 to 7.00

---

Measured On: Human GO (Homo sapiens)
Construct: purchased Novus Biologicals NBP1-72412
Experiment Summary: GO enzymatic assay (coupled fluorescence/HRP assay, glycolate substrate)
Assay type: biochemical
Applied Conditions: Table 2; read-out: Range (range of IC50 values calculated from the enzymatic assays)
I'd be grateful if you could share measured IC50 for these entries.

Asked: Quickly give me recorded IC50 for O=C(O)c1[nH]nnc1CSc1ccc(-c2ccc(OC(F)(F)F)c(Cl)c2)cc1 [Compound 329]
Given back: < 100 nM

Asked: Return value of IC50 for input O=C(O)c1[nH]nnc1-c1ccc(-c2ccc(Cl)cc2)c(OC(F)(F)F)c1 [Compound 203] , no commentary.
Given back: < 100 nM

Asked: Identify the reported IC50 for the following entry. O=C(O)c1[nH]nnc1S[C@H]1CC[C@@H](c2ccc(OC(F)(F)F)cc2)CC1 [Compound 348]
Given back: < 100 nM

Asked: Name the recorded IC50 of the item CCN(Cc1nn[nH]c1C(=O)O)c1ccc2cc(Cl)ccc2c1 [Compound 187] in your answer.
Given back: 100 to 1000 nM

Data provenance: patent US11384055B2
